B1: EEHEE_rd3_1049 (parent)
chain: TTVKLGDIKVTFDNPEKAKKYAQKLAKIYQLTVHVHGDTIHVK

Variants of: B1
Assay: folding stability dG (cDNA display proteolysis); higher = more stable
Conditions: PBS, room temperature
Respond with yes for folding stability dG values of 2 kcal/mol and above, no for values below.

* V42W | no
* I8S | no
* I28K | yes
* I40Y | no
* I40A | no
* K9C | yes
* T32H | no
* T32K | no
* H41M | no
* P15K | no
* F12V | no
* E16Q | no
* Y29E | no
* V3G | no
* V42N | no
* T1P | no
* N14G | no
* D13V | no
* N14D | yes
* K24R | yes
* G6R | no
* K27I | no
* K17E | yes
* K24Y | yes
* G37N | no
* Q23K | no
* V10T | no
* G37A | no
* H36E | yes
* K43C | yes
* N14S | yes
